protocol: chemical genetic growth profiling, strain panel (AID 1159580);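 also: tested at 20 µM; growth read once vehicle control cultures reached saturation at 30 °C; 1 = growth at the plate median or of vehicle wells; lower values mean less growth of the strain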
conditions: S. cerevisiae deletion strains, growth OD, locus YPL241C, strain CIN2, hits give low values
About 2,000 (36%) of roughly 5,500 compounds were called active. About 18% were inconclusive and are not listed. The list shows a part of the results.
Please go through the items and note down their normalized growth.

normalized growth lookup needed for N#C/C(NCc1cccs1)=C(\C#N)NCc1c(F)cccc1Cl , thanks.
0.973 (inactive)

Fill in the blank: the reported normalized growth of O=C(CSCc1c(F)cccc1Cl)NC1Cc2ccccc2C1 is ____.
0.938 (inactive)

Fill blank: measured normalized growth of the compound C[C@@H]1OC(O[C@H]2[C@H](OC(=O)[C@]34CCC(C)(C)CC3C3=CCC5[C@@]6(C)CC[C@H](OC7O[C@@H](C)[C@H](O[C@@H]8OC[C@@H](O)[C@H](O)[C@H]8O)[C@@H](O)[C@H]7O)C(C)(C)C6CC[C@@]5(C)[C@]3(C)CC4O)OC[C@H](O)[C@H]2O)[C@H](O)[C@H](O)[C@H]1O[C@@H]1O[C@H](CO)[C@@H](O)[C@H](O)[C@H]1O (stereo partly drawn) is ____.
0.989 (inactive)

----------
protocol: chemical genetic growth profiling, strain panel (AID 1159580);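 also: tested at 20 µM; growth read once vehicle control cultures reached saturation at 30 °C; 1 = growth at the plate median or of vehicle wells; lower values mean less growth of the strain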
conditions: S. cerevisiae deletion strains, growth OD, locus YDL005C, strain med2, hits give low values
Screen size: about 5,500 compounds; about 2,000 (36%) were called active. Not shown: some 18% with an inconclusive outcome. The list shows a part of the results.
Give normalized growth for every item shown.
Form rule: numeric answer, no unit written next to it.

Recorded normalized growth of Cc1cc(O)cc(C)c1Cl , please.
1.02

# lookup: normalized growth of CCOc1ccc2nc3cc(N)ccc3c(N)c2c1
0.981

Name the reported normalized growth value associated with the compound Cc1cc(C(C)(C)C)c(O)c(C(C)(C)C)c1
0.975

May I ask what normalized growth has been recorded for CC(CC(=O)C1OC1(C)C)C1C(=O)CC2(C)C3=CCC4C(C)(C)C(OC5OCC(O)C(O)C5O)CCC45CC35C(O)CC12C (stereo unspecified) ?
1.03

Recorded normalized growth of Nc1c2ccccc2nc2ccccc12 (tested in a mixture with another compound) , please.
0.801

Query: normalized growth; subject: Nc1c2c(nc3ccccc13)CCCC2
0.977

Recorded normalized growth of COC1=C[C@@H]2[C@@H]3Cc4ccc(OC)c(O)c4[C@]2(CCN3C)CC1=O , please.
0.997

Which normalized growth reading was recorded for the compound CCCOc1ccccc1-c1nc2n[nH]nc2c(=O)[nH]1 ?
1

Reported normalized growth, compound N#CC(O[C@@H]1O[C@H](CO[C@@H]2O[C@H](CO)[C@@H](O)[C@H](O)[C@H]2O)[C@@H](O)[C@H](O)[C@H]1O)c1ccccc1 (stereo partly specified) : ____
0.967

What value of normalized growth has been reported for the following compound? Cc1ccc(N=CN(C)C=Nc2ccc(C)cc2C)c(C)c1
0.987

Item OC(CCN1CCCCC1)(c1ccccc1)C1CCCCC1 (stereo unspecified) has what recorded normalized growth?
0.972

Look at this compound and give its reported normalized growth. CC1OC(=O)C(C(C)C)NC(=O)C(C(C)C)OC(=O)C(C(C)C)NC(=O)C(C)OC(=O)C(C(C)C)NC(=O)C(C(C)C)OC(=O)C(C(C)C)NC(=O)C(C)OC(=O)C(C(C)C)NC(=O)C(C(C)C)OC(=O)C(C(C)C)NC1=O (stereo unspecified)
0.332

Field request: normalized growth | item: Cc1cc(O)cc(=O)o1
1.01

Could you tell me which normalized growth is on file for COC(=O)C[C@H]1C(C)(C)C(=O)[C@@H]2CC3C4=CC(=O)O[C@@H](c5ccoc5)[C@]4(C)CCC3[C@@]1(C)C2=O (stereo partly specified) ?
0.978

# query: normalized growth of entry CCC(C)C(NC)C(=O)O (stereo unspecified)
1.02

Sample COc1cc(C(=O)NCCCCCC(=O)O)cc(OC)c1OC — what was its normalized growth?
0.973

What does the record list as normalized growth for CC(=O)NC(C(=O)O)C(C)(C)SN=O (stereo unspecified) ?
0.977

Reported normalized growth for NC(Cc1c[nH]c2ccccc12)C(=O)O (stereo unspecified) : what is it?
1.03

Form field: reported normalized growth of CC1(C)CCC2(C(=O)O)CCC3(C)C(=CCC4C5(C)CCC(O)C(C)(C)C5C(O)CC43C)C2C1 (stereo unspecified)
0.246

Please look up its normalized growth: Cc1cc(O)cc(O)c1C(=O)O
1.03

Param item = Cc1ccc(-c2cc(C(F)(F)F)nn2-c2ccc(S(N)(=O)=O)cc2)cc1 ; retrieve measured normalized growth.
1.03

Bench note: what normalized growth did COc1ccc2c3c([nH]c2c1)C(C)=NCC3 show?
0.99

Name the recorded normalized growth for C[C@H]1[C@H](C)CC[C@]2(CO)CC[C@]3(C)C(=CCC4[C@@]5(C)CC[C@H](O)C(C)(C)C5CC[C@]43C)[C@H]12 (stereo partly specified) .
0.986

Report normalized growth for Cc1ccc(S(=O)(=O)NC(=O)NN2CC3CCCC3C2)cc1 (stereo unspecified) please.
0.98

Using the record for COc1ccc2[nH]cc(CCN)c2c1 , report its normalized growth.
1.02

Fill blank: measured normalized growth of the compound CC(C)=CCCC1(C)C=Cc2c(O)c3c(c(CC=C(C)C)c2O1)OC12C(=CC4CC1C(C)(C)OC2(C/C=C(/C)C(=O)O)C4=O)C3=O (stereo unspecified) is ____.
0.959

Requested field: normalized growth. Item: N=C(N)c1ccc(OCCCCCOc2ccc(C(=N)N)cc2)cc1
0.979

Dear colleague, I am looking for the recorded normalized growth of the following compound: CC1(C)CC[C@@]2(C(=O)O)C(C1)C1=CCC3[C@@]4(C)CC[C@H](O)C(C)(C)C4CC[C@@]3(C)[C@]1(C)C[C@@H]2O (stereo partly specified)
1.01

So what's the measured normalized growth for this one? CC(C)(Sc1cc(C(C)(C)C)c(O)c(C(C)(C)C)c1)Sc1cc(C(C)(C)C)c(O)c(C(C)(C)C)c1
1.02

Please report the recorded normalized growth for NNC(=O)c1ccncc1 .
1.01

normalized growth for CC(C)=CCCC1(C)C=Cc2c(O)c3c(c(CC=C(C)C)c2O1)OC12C(=CCCC1C(C)(C)O[C@@]2(C/C=C(\C)C(=O)O)C(=O)O)C3=O (stereo partly specified) ?
1.03

Consider the compound shown here: C[C@@H]1CC[C@]2(C(=O)O)CC[C@]3(C)C(=CCC4[C@@]5(C)CC[C@H](O)C(C)(C)C5CC[C@]43C)C2[C@H]1C (stereo partly specified) What is its recorded normalized growth?
0.998

# normalized growth lookup, item COc1cc(N)c(Cl)cc1C(=O)NC1CCN(Cc2ccccc2)CC1
0.996

Tell me the measured normalized growth of O=c1ccc2ccc(O)cc2o1 , please.
0.981

Item under review: COc1cc(C(=O)O[C@H]2CC[C@@]3(C)[C@@H]4CC[C@H]5[C@]6(O)C[C@H](O)[C@@]7(O)[C@@H](CN8C[C@@H](C)CC[C@H]8[C@@]7(C)O)[C@]6(O)C[C@@]53O[C@]24O)cc(OC)c1OC . Reported normalized growth?
0.973

Item C/C=C(/C)C(=O)O[C@@H]1[C@H](OC(C)=O)[C@@]2(CO)C(CC1(C)C)C1=CCC3[C@@]4(C)CC[C@H](O[C@@H]5O[C@H](C(=O)O)[C@@H](O[C@@H]6O[C@H](CO)[C@@H](O)[C@H](O)[C@H]6O)[C@H](O)[C@H]5O[C@@H]5O[C@H](CO)[C@@H](O)[C@H](O)[C@H]5O)[C@](C)(CO)C4CC[C@@]3(C)[C@]1(C)C[C@H]2O (stereo partly specified) has what recorded normalized growth?
0.982

----------
protocol: chemical genetic growth profiling, strain panel (AID 1159580);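 also: tested at 20 µM; growth read once vehicle control cultures reached saturation at 30 °C; 1 = growth at the plate median or of vehicle wells; lower values mean less growth of the strain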
conditions: S. cerevisiae deletion strains, growth OD, locus YNL207W, strain RIO2, hits give low values
The campaign covered roughly 5,500 compounds. About 2,000 (36%) were called active. Not shown: some 18% with an inconclusive outcome. The list shows a part of the results.
For each of the compounds below, state its normalized growth.
Write the value as a bare number.

Recorded normalized growth of O=C(NCCc1ccncc1)c1ccc(Cl)c(Cl)c1 , please.
0.991

Endpoint output: normalized growth of Cc1ccc(S(=O)(=O)n2c(Sc3ccc([N+](=O)[O-])cc3[N+](=O)[O-])nc3cc(C)ccc32)cc1 . Value?
0.984

// normalized growth lookup, key: O=C(N/N=C\c1cc(Br)ccc1O)c1ccccc1Oc1ccccc1
0.976

For O=C(Nc1ccc(Cl)cc1)SCc1c(Cl)cccc1Cl , what is its reported normalized growth?
0.955

Form field: reported normalized growth of Cc1csc(NC(=O)Nc2ccc(C(F)(F)F)cc2)c1Cl
0.945

So what does the record say about normalized growth for O=C(Nc1ccccc1Sc1ccc([N+](=O)[O-])cc1[N+](=O)[O-])C(Cl)(Cl)Cl ?
0.967

Recorded normalized growth of Cc1nc(-c2ccccn2)nc(N(C)Cc2ccccc2)c1Cl , please.
0.959

# normalized growth lookup, item Cc1oc(C(C)(C)C)cc1-c1cc(N)n(-c2ccc(I)cc2)n1
1.02

Given the compound O=C(c1ccc(Cl)cc1)N(Cc1ccccc1)Cc1cccnc1 , what is its reported normalized growth?
0.986

What does the record list as normalized growth for S=C(Nc1ccc(Cl)cc1)SCc1c(Cl)cccc1Cl ?
0.983

Which normalized growth is listed for O=C(NCCNc1ncc(Cl)cc1C(F)(F)F)C(F)(F)Sc1ccccc1 ?
0.989

I would be grateful if you could share the reported normalized growth for Cc1nc(-c2ccccn2)nc(SCc2ccccc2)c1Cl .
0.921

Form field: reported normalized growth of Cc1ccc(C)c(CSc2nc(C3CCCCC3)c(C#N)c(=O)[nH]2)c1
0.995

I am curious: what normalized growth value has been reported for Cc1csc(NC(=O)Nc2ccc(C(F)(F)F)cc2)c1 ?
0.965

Could you tell me which normalized growth is on file for Nc1ccc(Sc2ccccc2)nc1Sc1ccccc1 ?
0.951

Fill blank: measured normalized growth of the compound Clc1cc(Cl)cc(-c2nc(SCc3ccc(Cl)cc3Cl)n[nH]2)c1 is ____.
0.983

Which normalized growth value belongs to S=C(NCc1ccccc1)Nc1ccc(Cl)c(Cl)c1 ?
0.829

Param item = O=C(NCC(c1ccccc1)c1c[nH]c2ccccc12)c1ccc(C(F)(F)F)cc1 (stereo not given) ; retrieve measured normalized growth.
0.979

Can you look up the measured normalized growth of Fc1cccc(Cl)c1CSc1n[nH]c(-c2cc(C(F)(F)F)cc(C(F)(F)F)c2)n1 for me?
0.978

Tell me the measured normalized growth of O=C(CSCc1csc2ccccc12)Nc1ccc(F)c(Cl)c1 , please.
0.974

Report normalized growth for COc1ccc2nc3ccccc3c(N)c2c1 please.
0.645

Requested read-out: normalized growth. Entry: CCCc1nc(-c2ccccn2)[nH]c(=O)c1CC1CC1
0.94

Looking for the measured normalized growth of Nc1ccccc1C(=O)N/N=C\c1cc(Br)ccc1O , can you help?
0.979

# lookup: normalized growth of O=[N+]([O-])c1cnc(Sc2nnc(SCc3cccc(C(F)(F)F)c3)s2)s1
0.0918

Requested read-out: normalized growth. Entry: O=C(c1cccs1)N(Cc1cccnc1)Cc1ccc(Cl)cc1Cl
0.969
